Consider the following compounds and their measured Fold Increase readings.
Test system: SMN2-linked luciferase-reporter gene construct
ASSAY_NOTES: SMN Splice Reporter Assay (SMN2-linked luciferase reporter)
Format: cell-based
REPORTED_CONDITIONS: fold-increase of luciferase over baseline reading of transformed cells without any test compound
MEASURED_METRIC: Fold Increase

>  <COMPOUND_STRUCTURE_STRING>
Cc1ccc2c(c1)CN(c1ccc3ccn(C)c3c1)C2=O

>  <RESULT_NUMBER>
1.708

$$$$
>  <COMPOUND_STRUCTURE_STRING>
Cn1ccc2cc(N3Cc4cc(Br)ccc4C3=O)ccc21

>  <RESULT_NUMBER>
1.51

$$$$
>  <COMPOUND_STRUCTURE_STRING>
Cn1ccc2ccc(N3Cc4ccc(OC5CCCC5)cc4C3=O)cc21

>  <RESULT_NUMBER>
1.582

$$$$
>  <COMPOUND_STRUCTURE_STRING>
COc1ccc2c(c1)C(=O)N(c1ccc3c(ccn3C(F)F)c1)C2

>  <RESULT_NUMBER>
1.19

$$$$
>  <COMPOUND_STRUCTURE_STRING>
Cn1ccc2cc(N3Cc4ccc(-c5ccccc5)cc4C3=O)ccc21

>  <RESULT_NUMBER>
1.364

$$$$
